The reported numbers originate from patent US20240309087A1.

Molecular target: T1, hCD112R mFC recombinant protein (human; murine, UniProt Q6DKI7 41-160)
T1 construct: range 41-160; expressed in 293E cells; also called hCD112R ECD mFC; hCD112R-ECD-mFC; not shown: murine IgG2a Fc domain (MX2-mFc vector)
T1 sequence (looked up): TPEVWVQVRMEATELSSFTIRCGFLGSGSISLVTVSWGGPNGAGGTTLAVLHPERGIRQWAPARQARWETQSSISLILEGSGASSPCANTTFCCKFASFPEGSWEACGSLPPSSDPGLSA
Assay: ELISA, coated hCD112R-ECD-mFC
Field: EC50. Provide a value for each of the binders that follow.
The reply should read as a number followed by its unit.

Supply reported EC50 belonging to this binder: Hu28 (antibody, IgG4, V domains shown, humanized IgG4) VH: EVQLVESGGGLVQPGGSLRLSCAASGFTFSSYHMSWVRQAPGKGLELVAAISRDGDSTYYPDTVKGRFTISRDNAKNSLYLQMNSLRAEDTAVYYCSRHEDYFGFAMDSWGQGTLVTVSS VL: DIVMTQSPDSLAVSLGERATINCKASQSVSNDVAWYQQKPGQPPKLLIYYVSHRFTGVPDRFSGSGSGTDFTLTISSLQAEDVAVYFCHQAYRSPWTFGQGTKLEIK
4.79 ng/mL

Could you please provide reported EC50 for Hu18 (antibody, IgG4, V domains shown, humanized IgG4) VH: EVQLVESGGGLVKPGGSLRLSCAASGFTFSSYHMSWVRQAPGKGLELVSAISRDGDSTYYPDTVKGRFTISRDNAKNSLYLQMNSLRAEDTAVYYCSRHEDYFGFAMDSWGQGTLVTVSS VL: EIVMTQSPPTLSLSPGERVTLSCKASQSVSNDVAWYQQKPGQAPRLLIYYVSNRFTGIPARFSGSGSGTDFTLTISSLQPEDFAVYFCQQAYRSPWTFGQGTKLEIK ? Thanks!
4.66 ng/mL

Fill in EC50 for record Hu36 (antibody, IgG4, V domains shown, humanized IgG4) VH: EVQLVESGGGLVQPGGSLRLSCAASGFTFSSYHMSWVRQAPGKGLELVAAISRDGDSTYYPDTVKGRFTISRDDAENSLYLQMNSLRAEDTAVYYCSRHEDYFGFAMDSWGQGTLVTVSS VL: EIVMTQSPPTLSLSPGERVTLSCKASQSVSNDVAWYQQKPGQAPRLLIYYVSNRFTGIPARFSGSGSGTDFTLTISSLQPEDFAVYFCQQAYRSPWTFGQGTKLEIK
4.2 ng/mL

Item Hu50 (antibody, IgG4, V domains shown, humanized IgG4) VH: EVQLVESGGGLVKPGGSLRLSCAASGFTFSSYHMSWVRQAPGKGLELVSAINSNGINTYYLDTVKGRFTISRDNAKNSLYLQMNSLRAEDTAVYYCARHEDYYGFAMDYWGQGTLVTVSS VL: AIQMTQSPSSLSASVGDRVTITCKASQSVTNDVAWYQQKPGKAPKLLIYYVSNHYTGVPSRFSGSGSGTDFTLTISSLQPEDFATYFCQQAYRSPWTFGQGTKLEIK : provide EC50
4.59 ng/mL

Give EC50 for the following binder: Hu32 (antibody, IgG4, V domains shown, humanized IgG4) VH: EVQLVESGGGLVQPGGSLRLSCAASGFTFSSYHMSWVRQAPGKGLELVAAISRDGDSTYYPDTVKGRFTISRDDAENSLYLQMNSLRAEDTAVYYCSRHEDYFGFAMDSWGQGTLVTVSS VL: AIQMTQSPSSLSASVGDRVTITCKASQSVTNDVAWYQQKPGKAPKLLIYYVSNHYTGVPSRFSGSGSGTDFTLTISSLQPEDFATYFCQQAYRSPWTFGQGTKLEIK
4.04 ng/mL
